Recorded values, source patent US20260242478A1.

Target: T1, Anti-PSMA Fab (006 PSMA Fab) (biotinylated (site not stated))
T1 construct: Biotinylated PSMA Fab captured on neutravidin coated plates
Test: clonal phage ELISA on PSMA Fab pre-incubated with PSMA antigen as competitor, anti-M13 HRP detection
Label 1 when Phage binding ELISA signal, Anti-PSMA Fab with PSMA antigen is at or above 0.09; otherwise label -1.

Solved cases below.
WWPSCVPEWMCAGL [Phage-3009] :: 1
QWLRCEPEWMCIGF [Phage-3012] :: 1
WEPVCKPDWMCNGF [Phage-3011] :: -1
ALPMCEPFWMCTGF [Phage-3005] :: -1
SEVMCVPQWMCNGF [Phage-3008] :: 1
VMVECRPAWMCNGF [Phage-3006] :: -1
MYHMCRPSWMCEGF [Phage-3007] :: 1

// switching to the query binder
Hello, I need to know if ANVACIPPWMCLGF [Phage-3016] has measured Phage binding ELISA signal, Anti-PSMA Fab with PSMA antigen not below 0.09. Thanks!
1
